Biological target: OE19 (3A1) (Homo sapiens, UniProt P30838)
Sequence (P30838 1-453): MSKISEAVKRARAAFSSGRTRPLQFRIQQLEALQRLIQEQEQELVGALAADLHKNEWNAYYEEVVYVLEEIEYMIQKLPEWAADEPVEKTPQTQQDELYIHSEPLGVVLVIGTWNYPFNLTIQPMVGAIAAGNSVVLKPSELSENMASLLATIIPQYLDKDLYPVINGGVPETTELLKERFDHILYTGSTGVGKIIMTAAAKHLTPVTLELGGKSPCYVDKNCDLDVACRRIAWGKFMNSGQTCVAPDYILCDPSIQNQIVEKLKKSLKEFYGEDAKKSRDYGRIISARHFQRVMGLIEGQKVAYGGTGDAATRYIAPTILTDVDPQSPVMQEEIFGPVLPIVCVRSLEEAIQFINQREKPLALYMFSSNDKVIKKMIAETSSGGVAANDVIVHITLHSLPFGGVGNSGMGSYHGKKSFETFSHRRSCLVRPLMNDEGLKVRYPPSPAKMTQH
Assay: Cellular ALDEFLUOR assay in OE19 cells (preferential ALDH3A1 expression)
Reported Property: AC50 (µM)

CCc1ccc(N2CCN(c3nc(C(=O)NCc4cccc(C)c4)cs3)CC2)cc1 [NCGC01211128-01]; 3.13
O=C(Nc1ccc(CNC(=O)c2csc(N3CCN(c4cccc(C(F)(F)F)c4)CC3)n2)cc1)c1ccc(F)cc1 [NCGC01407975-01]; 0.1
Cc1cccc(CNC(=O)c2csc(N3CCN(c4c(F)cccc4F)CC3)n2)c1 [NCGC01211383-01]; 15.7
Cc1cccc(CNC(=O)c2csc(N3CCN(c4ccccc4Br)CC3)n2)c1 [Compound 9]; 8.81
Cc1ccc(CNC(=O)c2csc(N3CCN(c4cccc(C(F)(F)F)c4)CC3)n2)cc1C(F)(F)F [NCGC01407772-01]; 0.644

[P] Cc1cccc(CNC(=O)c2csc(N3CCN(c4cccc(O)c4)CC3)n2)c1 [NCGC01211119-01]
[Q] Cc1cccc(CNC(=O)c2csc(N3CCN(c4ccc(Cl)cn4)CC3)n2)c1 [Compound 11]
// max by AC50 over [ P , Q ] I would appreciate it if you answered with the label of your choice.
P
(P: 15.7 µM, Q: 3.51 µM)

* * *

Biological target: OE19 (3A1) (Homo sapiens, UniProt P30838)
Assay: Cellular ALDEFLUOR assay in OE19 cells (preferential ALDH3A1 expression)
Reported Property: AC50 (µM)

O=C(NCc1ccc2c(c1)CCC2)c1csc(N2CCN(c3cccc(C(F)(F)F)c3)CC2)n1; 0.0407
COc1ccc(N2CCN(c3nc(C(=O)NCc4cccc(C)c4)cs3)CC2)c(OC)c1; 8.81

[1] O=C(NCc1ccc2c(c1)C(=O)NCC2)c1csc(N2CCN(c3cccc(C(F)(F)F)c3)CC2)n1
[2] Cc1cccc(CNC(=O)c2csc(N3CCN(c4cccc(C(F)(F)F)n4)CC3)n2)c1
Among 1 and 2 , whose measured AC50 is the smaller figure? I would appreciate it if you answered with the label of your choice.
1

* * *

Target: OE19 (3A1) (Homo sapiens)
Experiment: Cellular ALDEFLUOR assay in OE19 cells (preferential ALDH3A1 expression)
Settings: Table S5, cellular curve class
Reported Property: Cell_CC-v2

Field: example entries. Status: answers known.
Cc1ccc(C)n1-c1ccc(CNC(=O)c2csc(N3CCN(c4cccc(C(F)(F)F)c4)CC3)n2)cc1; 4
C[S+](=N)([O-])c1cccc(CNC(=O)c2csc(N3CCN(c4cccc(C(F)(F)F)c4)CC3)n2)c1 (stereo not shown); -1.1
O=C(NCc1cccc(Cl)c1)c1csc(N2CCN(c3cccc(C(F)(F)F)c3)CC2)n1; -1.2

[P] Cc1ccccc1-c1cccc(CNC(=O)c2csc(N3CCN(c4cccc(C(F)(F)F)c4)CC3)n2)c1
[Q] O=C(NCc1cccc(Oc2ccccc2)c1)c1csc(N2CCN(c3cccc(C(F)(F)F)c3)CC2)n1
Among P and Q , whose measured Cell_CC-v2 is the smaller figure? I would appreciate it if you answered with the label of your choice.
Q

[A] O=C(NCc1ccc(C(F)F)c(F)c1)c1csc(N2CCN(c3cccc(C(F)(F)F)c3)CC2)n1
[B] O=C(NCc1ccc(C(F)(F)F)c(Cl)c1)c1csc(N2CCN(c3cccc(C(F)(F)F)c3)CC2)n1
// max by Cell_CC-v2 over [ A , B ] I would appreciate it if you answered with the label of your choice.
B
(B: -1.3, A: -2.2)

[I] Cc1cc(CNC(=O)c2csc(N3CCN(c4cccc(C(F)(F)F)c4)CC3)n2)cc(C)c1Br
[II] O=C(NCc1ccc(SC(F)(F)F)cc1)c1csc(N2CCN(c3cccc(C(F)(F)F)c3)CC2)n1
Among I and II , whose measured Cell_CC-v2 is the smaller figure? I would appreciate it if you answered with the label of your choice.
II
(II: -1.2, I: 5)

[A] O=C(NC1CC1)c1ccc(CNC(=O)c2csc(N3CCN(c4cccc(C(F)(F)F)c4)CC3)n2)cc1
[B] O=C(NCc1cccc(COc2ccccc2)c1)c1csc(N2CCN(c3cccc(C(F)(F)F)c3)CC2)n1
// max by Cell_CC-v2 over [ A , B ] I would appreciate it if you answered with the label of your choice.
A
